Tested on: HepG2
Test: Anticancer activity against human HepG2 cells assessed as inhibition of cell growth incubated for 48 hrs by MTT assay
Assay type: functional, cell-based
Conditions: HepG2, 48 h
measurement-label: IC50 (µM)

Record excerpt, results attached:
compound	system-tested	IC50, µM
CC(C)c1ccc2c(c1)CC[C@H]1[C@](C)(C(=O)OCc3cn(CC4CN(c5ccc(N6CCOCC6)c(F)c5)C(=O)O4)nn3)CCC[C@]21C (stereo not given in full)	HepG2	28.7
CC(C)c1ccc2c(c1)CC[C@H]1[C@](C)(C(=O)OCc3cn(CC4CN(c5ccc(Cl)cc5)C(=O)O4)nn3)CCC[C@]21C (stereo not given in full)	HepG2	18.1
CC(C)c1ccc2c(c1)CC[C@H]1[C@](C)(C(=O)O)CCC[C@]21C [DEHYDROABIETIC ACID]	HepG2	80.4

[1] CC(C)c1ccc2c(c1)CC[C@H]1[C@](C)(C(=O)OCc3cn(CC4CN(c5ccccc5[N+](=O)[O-])C(=O)O4)nn3)CCC[C@]21C (stereo not given in full)
[2] CC(C)c1ccc2c(c1)CC[C@H]1[C@](C)(C(=O)OCc3cn(CC4CN(c5ccccc5)C(=O)O4)nn3)CCC[C@]21C (stereo not given in full)
## Task Please indicate which item has the smaller measured IC50: 1 versus 2 Identify your selection by its label.
## Result 2
